Entry source: patent US20030109529A1

# reported Red Blood Cell Infection Rate; entries follow
Tested on: wild type Plasmodium falciparum
Experiment: In vitro red blood cell culture infected with wild type Plasmodium falciparum, percent RBCs infected
Format: cell-based
Details: 48 hrs of treatment, 2.0 μM; control 35%
Output spec: scalar in %, unitless text.

1. CCNc1nc(Cl)nc(NCC)n1 [simazine, 2-chloro-4,6-di(ethylamino)-s-triazine]	0
2. CCNc1nc(NC(C)C)nc(SC)n1 [ametryn]	10
3. CC(C)Nc1nc(Cl)nc(NC(C)C)n1 [propazine]	1
4. CCN(CC)CCCC(C)Nc1ccnc2cc(Cl)ccc12 (stereo not drawn) [chloroquine, reference compound]	0
5. CCNc1nc(Cl)nc(NC(C)C)n1 [atrazine]	0

Attention now shifts to the item below.
Lab note: measured Red Blood Cell Infection Rate of CCNc1nc(Cl)nc(NC(C)(C)C#N)n1 [cyanazine] was 16
